- testedTarget: T1, DapF (diaminopimelate epimerase), wild type, N-terminal 6×His tag (Escherichia coli, UniProt P0A6K1 1-274)
- T1 sequence (looked up): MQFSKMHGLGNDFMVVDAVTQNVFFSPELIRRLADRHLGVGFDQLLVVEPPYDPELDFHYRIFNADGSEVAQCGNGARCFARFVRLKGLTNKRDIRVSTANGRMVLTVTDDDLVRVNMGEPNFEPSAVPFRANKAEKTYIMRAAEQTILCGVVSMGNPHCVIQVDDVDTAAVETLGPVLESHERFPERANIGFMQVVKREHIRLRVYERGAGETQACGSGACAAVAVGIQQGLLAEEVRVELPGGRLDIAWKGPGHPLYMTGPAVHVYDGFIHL
- protocolDescription: ITC
Reported Kd values are given for each entry in this list.
// note: answer is a bare numeric in nM

[
  {
    "binder": "RppH (R145A), GST tag removed (enzyme, Escherichia coli, UniProt P0A776 1-176, looked up) MIDDDGYRPNVGIVICNRQGQVMWARRFGQHSWQFPQGGINPGESAEQAMYRELFEEVGLSRKDVRILASTRNWLRYKLPKRLVRWDTKPVCIGQKQKWFLLQLVSGDAEINMQTSSTPEFDGWRWVSYWYPVRQVVSFKRDVYARVMKEFASVVMSLQENTPKPQNASAYRRKRG",
    "recordedMeasurement": 2.3
  },
  {
    "binder": "RppH (D142A), GST tag removed (enzyme, Escherichia coli, UniProt P0A776 1-176, looked up) MIDDDGYRPNVGIVICNRQGQVMWARRFGQHSWQFPQGGINPGESAEQAMYRELFEEVGLSRKDVRILASTRNWLRYKLPKRLVRWDTKPVCIGQKQKWFLLQLVSGDAEINMQTSSTPEFDGWRWVSYWYPVRQVVSFKRAVYRRVMKEFASVVMSLQENTPKPQNASAYRRKRG",
    "recordedMeasurement": 4.8
  },
  {
    "binder": "RppH (RNA pyrophosphohydrolase), wild type, GST tag removed (enzyme, Escherichia coli, UniProt P0A776 1-176, looked up) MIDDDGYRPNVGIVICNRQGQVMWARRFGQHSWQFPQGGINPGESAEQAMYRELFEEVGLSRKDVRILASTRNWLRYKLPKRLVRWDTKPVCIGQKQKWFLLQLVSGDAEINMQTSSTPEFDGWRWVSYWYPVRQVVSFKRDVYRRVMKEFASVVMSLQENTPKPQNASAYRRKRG",
    "recordedMeasurement": 0.8
  }
]

# context switch: different binder, same Kd
Task: Form field: reported Kd of RppH (S128A), GST tag removed (enzyme, Escherichia coli, UniProt P0A776 1-176, looked up) MIDDDGYRPNVGIVICNRQGQVMWARRFGQHSWQFPQGGINPGESAEQAMYRELFEEVGLSRKDVRILASTRNWLRYKLPKRLVRWDTKPVCIGQKQKWFLLQLVSGDAEINMQTSSTPEFDGWRWVAYWYPVRQVVSFKRDVYRRVMKEFASVVMSLQENTPKPQNASAYRRKRG
Result: 12.8
